# Test system: Pseudomonas aeruginosa (ATCC 27883)
# Particulars: ATCC 27883
Non-standard residues stand in square brackets, D forms with d. Residues, ends and D or L forms follow the SMILES beside them. dDip = N[C@@H](C(=O)O)C(c1ccccc1)c1ccccc1; Dip = N[C@H](C(=O)O)C(c1ccccc1)c1ccccc1; 2Nal = N[C@@H](Cc1ccc2ccccc2c1)C(=O)O; d2Nal = N[C@H](Cc1ccc2ccccc2c1)C(=O)O
Endpoint Label: MIC P. aeruginosa ATCC 27883 (mg/L)
Value expressed in mg/L; do not type the unit.

Study these solved cases before continuing.
Compound	System Tested	MIC P. aeruginosa ATCC 27883 (mg/L)
N=C(N)NCCC[C@H](NC(=O)[C@H](CCCNC(=N)N)NC(=O)[C@H](CCCNC(=N)N)NC(=O)[C@@H](N)CCCNC(=N)N)C(=O)N[C@@H](Cc1c[nH]c2ccccc12)C(=O)N[C@H](C(=O)N[C@H](C(=O)O)C(c1ccccc1)c1ccccc1)C(c1ccccc1)c1ccccc1 [IFX-026-1, NH2-R-R-R-R-Trp-Dip-Dip-OH] (H-RRRRW[Dip][Dip]-OH)	Pseudomonas aeruginosa (ATCC 27883)	25
N=C(N)NCCC[C@@H](N)C(=O)N[C@@H](CCCNC(=N)N)C(=O)N[C@H](CCCNC(=N)N)C(=O)N[C@@H](CCCNC(=N)N)C(=O)N[C@@H](C(=O)N[C@@H](C(=O)N[C@@H](C(=O)O)C(c1ccccc1)c1ccccc1)C(c1ccccc1)c1ccccc1)C(c1ccccc1)c1ccccc1 [IFX-068-1] (H-[dR]R[dR]R[dDip][dDip][dDip]-OH)	Pseudomonas aeruginosa (ATCC 27883)	25
N=C(N)NCCC[C@@H]1NC(=O)[C@H](CCCNC(=N)N)NC(=O)[C@H](CCCNC(=N)N)NC(=O)[C@@H](Cc2ccc3ccccc3c2)NC(=O)[C@@H](Cc2ccc3ccccc3c2)NC(=O)[C@@H](Cc2ccc3ccccc3c2)NC(=O)[C@H](CCCNC(=N)N)NC1=O [IFX-086, c[Arg-Arg-Arg-Arg-naI-naI-naI]] (cyclo(RRRR[d2Nal][d2Nal][d2Nal]))	Pseudomonas aeruginosa (ATCC 27883)	12.5
N=C(N)NCCC[C@H](NC(=O)[C@H](CCCNC(=N)N)NC(=O)[C@H](CCCNC(=N)N)NC(=O)[C@@H](N)CCCNC(=N)N)C(=O)N[C@@H](Cc1c[nH]c2ccccc12)C(=O)N[C@H](Cc1ccc2ccccc2c1)C(=O)N[C@H](Cc1ccc2ccccc2c1)C(=O)O [IFX-112-1] (H-RRRRW[d2Nal][d2Nal]-OH)	Pseudomonas aeruginosa (ATCC 27883)	25
N=C(N)NCCC[C@@H]1NC(=O)[C@H](CCCNC(=N)N)NC(=O)[C@H](CCCNC(=N)N)NC(=O)[C@@H](CCCNC(=N)N)NC(=O)[C@H](Cc2ccc3ccccc3c2)NC(=O)[C@H](Cc2ccc3ccccc3c2)NC(=O)[C@H](Cc2c[nH]c3ccccc23)NC1=O [IFX-108, c[arg-Arg-Arg-Arg-Trp-NaI-NaI]] (cyclo([2Nal][2Nal][dR]RRRW))	Pseudomonas aeruginosa (ATCC 27883)	6.2

From here, focus on the item given below.
Recorded MIC P. aeruginosa ATCC 27883 of N=C(N)NCCC[C@@H]1NC(=O)[C@H](CCCNC(=N)N)NC(=O)[C@@H](Cc2ccc3ccccc3c2)NC(=O)[C@@H](Cc2ccc3ccccc3c2)NC(=O)[C@@H](Cc2c[nH]c3ccccc23)NC(=O)[C@@H](CCCNC(=N)N)NC(=O)[C@@H](CCCNC(=N)N)NC1=O [IFX-118, c[Arg-Arg-arg-arg-trp-naI-naI]] (cyclo(RR[dR][dR][dW][d2Nal][d2Nal])) , please.
16
